What DLD1 4% Abs IC50 was measured for each of the following?
- TARGET_ENTITY: T1, beta-catenin (in DLD1 TCF/LEF luciferase reporter cells) (UniProt P35222 1-781)
- T1 sequence (looked up): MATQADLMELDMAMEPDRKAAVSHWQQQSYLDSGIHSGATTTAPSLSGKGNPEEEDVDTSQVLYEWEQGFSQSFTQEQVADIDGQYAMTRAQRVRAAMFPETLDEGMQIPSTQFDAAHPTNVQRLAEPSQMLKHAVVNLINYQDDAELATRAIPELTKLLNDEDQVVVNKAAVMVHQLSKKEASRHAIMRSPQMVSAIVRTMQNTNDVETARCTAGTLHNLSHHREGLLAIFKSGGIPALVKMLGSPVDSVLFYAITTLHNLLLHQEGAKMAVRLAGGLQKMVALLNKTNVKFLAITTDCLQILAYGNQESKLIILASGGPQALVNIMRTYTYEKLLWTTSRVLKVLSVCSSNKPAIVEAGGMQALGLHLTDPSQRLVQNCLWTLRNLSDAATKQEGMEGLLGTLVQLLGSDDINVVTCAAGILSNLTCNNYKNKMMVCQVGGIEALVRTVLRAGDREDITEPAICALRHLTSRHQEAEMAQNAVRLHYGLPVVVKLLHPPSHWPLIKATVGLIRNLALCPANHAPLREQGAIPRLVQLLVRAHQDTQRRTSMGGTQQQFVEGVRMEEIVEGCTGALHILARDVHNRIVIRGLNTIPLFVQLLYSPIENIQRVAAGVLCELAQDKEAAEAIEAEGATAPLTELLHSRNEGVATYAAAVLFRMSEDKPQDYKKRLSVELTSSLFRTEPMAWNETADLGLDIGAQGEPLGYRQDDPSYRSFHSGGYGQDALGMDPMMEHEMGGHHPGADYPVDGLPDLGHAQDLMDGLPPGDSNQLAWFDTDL
- MEASUREMENT_PROTOCOL: cell-based or functional assay
Starred links: 1 amine or outer side, 2 acyl side, 3 side chain; linkers in the order of their positions; H or OH if unused. Positions of bridges follow the written chain, without caps; N, C: chain ends. Non-standard residues stand in square brackets, D forms with d. Primed or numbered codes have the meaning given here. No end group written: not given here. PyrS2″ = (S)-3-amino-1-((pent-4-en-1-yloxy)carbonyl)pyrrolidine-3-carboxylic acid (stapling residue), C=CCCCOC(=O)N1CC[C@@](N[*:1])(C(=O)[*:2])C1; B5(4) = 2,2-bis(4-pentenyl)glycine = 2-amino-2-(pent-4-en-1-yl)hept-6-enoic acid (stitching residue), C=CCCCC(CCCC=C)(N[*:1])C(=O)[*:2]; PyrS2 = (S)-3-amino-1-((pent-4-en-1-yloxy)carbonyl)pyrrolidine-3-carboxylic acid, C=CCCCOC(=O)N1CC[C@@](N[*:1])(C(=O)[*:2])C1; B5 = 2-amino-2-(pent-4-en-1-yl)hept-6-enoic acid, C=CCCCC(CCCC=C)(N[*:1])C(=O)[*:2]; Phe(3-COOH) = N[C@@H](Cc1cccc(C(=O)O)c1)C(=O)O; 2F3MeF = Cc1cccc(C[C@H](N[*:1])C(=O)[*:2])c1F; Phe(2-CF3) = N[C@@H](Cc1ccccc1C(F)(F)F)C(=O)O; Phe(2-Cl) = N[C@@H](Cc1ccccc1Cl)C(=O)O; Bta = N[C@@H](Cc1csc2ccccc12)C(=O)O; αAllylPro = C=CC[C@@]1(C(=O)O)CCCN1; tBuAla = CC(C)(C)C[C@H](N)C(=O)O; PyrS2(4) = not defined here
Give the value; after it, write the unit.

Parameters: items (list). Returns: DLD1 4% Abs IC50 for each item.
1. [αAllylPro]D[tBuAla][B5(4)]D[Phe(3-COOH)]AAFL[PyrS2(4)][2F3MeF][Bta]Q-NH2 (staple 1-4, 4-11; not fully specified; reading uncertain) [I-1335]
2. [αAllylPro]D[tBuAla][B5]D[Phe(3-COOH)]AAFL[PyrS2][Phe(2-CF3)][Bta]S-NH2 (staple 1-4, 4-11) [I-1336]
3. [αAllylPro]D[tBuAla][B5(4)]D[Phe(3-COOH)]AAFF[PyrS2″][Phe(2-CF3)][Bta]Q-NH2 (staple 1-4, 4-11) [I-1341]
4. [αAllylPro]D[tBuAla][B5]D[Phe(3-COOH)]AAFL[PyrS2][Phe(2-Cl)][Bta]S-NH2 (staple 1-4, 4-11) [I-1333]
5. [αAllylPro]D[tBuAla][B5(4)]D[Phe(3-COOH)]AAFF[PyrS2″][Phe(2-Cl)][Bta]Q-NH2 (staple 1-4, 4-11) [I-1338]

Return:
["900 nM", "700 nM", "3200 nM", "1200 nM", "3400 nM"]

Enquiry: // DLD1 4% Abs IC50 lookup, key: [αAllylPro]D[tBuAla][B5(4)]D[Phe(3-COOH)]AAFL[PyrS2″][Phe(2-Cl)][Bta]Q-NH2 (staple 1-4, 4-11) [I-1332]
Return: 900 nM

meta.source: patent US20240116985A1
